- protocol_description: chemical genetic growth profiling, strain panel (AID 1159580);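 further: tested at 20 µM; growth read once vehicle control cultures reached saturation at 30 °C; 1 = growth at the plate median or of vehicle wells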
- measurement_conditions: S. cerevisiae deletion strains, growth OD, locus YDR069C, strain doa4
Out of some 5,500 compounds screened, about 2,000 (36%) were called active. Not shown: some 18% with an inconclusive outcome. No stated cut-off is given here; in the data, active means normalized growth mostly below about 0.91 (no sharp cut-off); inconclusive means no clear call, values can overlap the other calls; inactive means mostly above about 0.92. This is one part of the list.
Possible outcomes: yes (active), no (inactive)

- O=c1[nH]cnc2c1ncn2C1O[C@H](CO)[C@@H](O)[C@H]1O (stereo not given in full): no
- C#C[C@]1(O)CCC2C3CCC4=Cc5oncc5C[C@]4(C)C3CC[C@@]21C (stereo not given in full): no
- CC(=O)O[C@@H]1CC[C@]2(C)C3CC[C@]4(C)C(=O)CCC4C3CC[C@H]2C1 (stereo not given in full): no
- CC(=O)O[C@H]1CC[C@]2(C)C3CC(=O)[C@]4(C)C(C(C)=O)=CCC4C3CC[C@H]2C1 (stereo not given in full): no
- NCCc1cc(O)c(O)cc1O: yes

---

- protocol_description: chemical genetic growth profiling, strain panel (AID 1159580);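 further: tested at 20 µM; growth read once vehicle control cultures reached saturation at 30 °C; 1 = growth at the plate median or of vehicle wells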
- measurement_conditions: S. cerevisiae deletion strains, growth OD, locus YHR027C, strain rpn1
The campaign covered roughly 5,500 compounds. About 2,000 (36%) were called active. About 18% were inconclusive and are not listed. Cut-off read from the data, not from the text of the source: active = normalized growth mostly below about 0.91 (no sharp cut-off); inconclusive = no clear call, values can overlap the other calls; inactive = mostly above about 0.92. The list shows a part of the results.
Possible outcomes: Yes = active, No = inactive

* CC1=NN(c2ccccc2)C(=O)C1 | No
* CC(=O)Oc1cccc2c1C(=O)c1c(OC(C)=O)cc(C(=O)O)cc1C2=O | No
* O=C(OC[C@H]1O[C@H](OC(=O)c2cc(O)c(O)c(OC(=O)c3cc(O)c(O)c(O)c3)c2)[C@H](OC(=O)c2cc(O)c(O)c(OC(=O)c3cc(O)c(O)c(O)c3)c2)[C@@H](OC(=O)c2cc(O)c(O)c(OC(=O)c3cc(O)c(O)c(O)c3)c2)[C@@H]1OC(=O)c1cc(O)c(O)c(OC(=O)c2cc(O)c(O)c(O)c2)c1)c1cc(O)c(O)c(OC(=O)c2cc(O)c(O)c(O)c2)c1 | Yes
* C#CC1(O)CCC2C3CCC4=CC(=O)CCC4(C)C3CCC21C (configuration not stated) | No
* CCOc1cccc(C(=O)c2ccc(O)c(O)c2O)c1 | Yes
* CC(=O)OCC(=O)[C@@]1(O)CCC2C3CCC4=CC(=O)CC[C@]4(C)C3[C@@H](O)C[C@@]21C (some centres not stated) | No
* C[C@]12CCC(=O)C=C1CCC1C2C(=O)C[C@@]2(C)C1CC[C@]2(O)C(=O)CO (some centres not stated) | No
* COc1cc2c(cc1OC)[C@@]13CCN4CC5=CCOC6CC(=O)N2C1[C@H]6[C@H]5C[C@H]43 (some centres not stated) | No
* O=C(CCc1ccc(O)cc1)c1c(O)cc(O)cc1O[C@@H]1O[C@H](CO)[C@@H](O)[C@H](O)[C@H]1O | No
* CC(=O)OC[C@H]1O[C@@H](Oc2cc(OC(C)=O)c3c(=O)cc(-c4ccc(OC(C)=O)cc4)oc3c2)[C@H](OC(C)=O)[C@@H](OC(C)=O)[C@@H]1OC(C)=O | No
* CCC1C(=O)OCC1Cc1cncn1C (configuration not stated) | No
* CO[C@@]1(NC(=O)Cc2cccs2)C(=O)N2C(C(=O)O)=C(COC(N)=O)CS[C@@H]21 | No
* COc1cc(-c2coc3cc(O[C@@H]4O[C@H](CO)[C@@H](O)[C@H](O)[C@H]4O)c(OC)c(O)c3c2=O)cc(O)c1OC | No
* COc1c2c(cc3c1OCO3)C13C=C[C@H](OC)CC1N(C2)CC3O (some centres not stated) | No
* C#C[C@]1(O)CCC2C3CCC4=Cc5oncc5C[C@]4(C)C3CC[C@@]21C (some centres not stated) | No
* CC1(C)C=Cc2cc3ccc(=O)oc3cc2O1 | No
* O=C(CCBr)N1CCN(C(=O)CCBr)CC1 | No

---

- protocol_description: chemical genetic growth profiling, strain panel (AID 1159580);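 further: tested at 20 µM; growth read once vehicle control cultures reached saturation at 30 °C; 1 = growth at the plate median or of vehicle wells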
- measurement_conditions: S. cerevisiae deletion strains, growth OD, locus YAL021C, strain ccr4, stronger effect = lower value
In all, about 5,500 compounds went through this assay and about 2,000 (36%) were called active. Inconclusive results (about 18%) are left out. This is one part of the list.
reported_metric: normalized growth

- O=C(CCc1ccc(O)cc1)c1c(O)cc(O)cc1O[C@@H]1O[C@H](CO)[C@@H](O)[C@H](O)[C@H]1O: 1.01 (inactive)
- NC1C[C@H]1c1ccccc1 (some centres undefined): 1 (inactive)
- Cc1c(NC(=O)c2cccnc2)c(=O)n(-c2ccccc2)n1C: 1.02 (inactive)
- NC[C@H]1O[C@H](O[C@H]2C(O[C@@H]3O[C@H](CO)[C@@H](O)[C@H]3O)[C@@H](O)[C@H](N)C[C@@H]2N)[C@H](N)[C@@H](O)[C@@H]1O (some centres undefined): 1.02 (inactive)
- O=C(O)[C@H](O)[C@@](O)(Cc1ccc(O)cc1)C(=O)O: 1 (inactive)
- COc1ccc(-c2oc3ccccc3c(=O)c2O)cc1OC: 0.164 (active)
- CC(=O)OC[C@H]1O[C@@H](Oc2cc(OC(C)=O)c3c(=O)cc(-c4ccc(OC(C)=O)cc4)oc3c2)[C@H](OC(C)=O)[C@@H](OC(C)=O)[C@@H]1OC(C)=O: 1.04 (inactive)
- CC(=O)NS(=O)(=O)c1ccc(NC(=O)c2ccccc2C(=O)O)cc1: 1.01 (inactive)
- CCc1cccc2c3c([nH]c12)C(CC)(CC(=O)O)OCC3 (centres undefined): 1.01 (inactive)
- CNS(=O)(=O)c1ccc(NC(=O)c2ccccc2C(=O)O)cc1: 1 (inactive)
- O=C(OC[C@H]1O[C@H](OC(=O)c2cc(O)c(O)c(OC(=O)c3cc(O)c(O)c(O)c3)c2)[C@H](OC(=O)c2cc(O)c(O)c(OC(=O)c3cc(O)c(O)c(O)c3)c2)[C@@H](OC(=O)c2cc(O)c(O)c(OC(=O)c3cc(O)c(O)c(O)c3)c2)[C@@H]1OC(=O)c1cc(O)c(O)c(OC(=O)c2cc(O)c(O)c(O)c2)c1)c1cc(O)c(O)c(OC(=O)c2cc(O)c(O)c(O)c2)c1: 0.273 (active)
- CC(=O)OCC(=O)[C@@]12OC3(CCCC3)O[C@@H]1CC1C3CCC4=CC(=O)C=C[C@]4(C)[C@@]3(F)[C@@H](O)C[C@@]12C (some centres undefined): 1.01 (inactive)
- CC(=O)[O][Hg][c]1ccccc1: 0.0671 (active)
- CCCCCCCCCCCCCCCCCCOCC(O)CO (centres undefined): 1.01 (inactive)
- CC(=O)Oc1cccc2c1C(=O)c1c(OC(C)=O)cc(C(=O)O)cc1C2=O: 0.969 (inactive)
- CC[C@H]1CN2CCc3cc(OC)c(OC)cc3C2C[C@@H]1CC1NCCc2cc(OC)c(OC)cc21 (some centres undefined): 0.988 (inactive)
- CC(=O)Oc1ccccc1C(=O)O: 0.993 (inactive)
- CCOC([O-])=Nc1c[n+](N2CCOCC2)no1: 0.994 (inactive)
- CCN(CC)CCNC(=O)c1cc(Cl)c(N)cc1OC: 0.992 (inactive)

---

- protocol_description: chemical genetic growth profiling, strain panel (AID 1159580);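 further: tested at 20 µM; growth read once vehicle control cultures reached saturation at 30 °C; 1 = growth at the plate median or of vehicle wells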
- measurement_conditions: S. cerevisiae deletion strains, growth OD, locus YMR307W, strain GAS1, stronger effect = lower value
The campaign covered roughly 5,500 compounds. About 2,000 (36%) were called active. About 18% were inconclusive and are not listed. Some of the results follow.
reported_metric: normalized growth

• N#C/C(=C\N(CCS(=O)(=O)c1ccc(Cl)cc1)Cc1cccs1)S(=O)(=O)c1ccc(Cl)cc1 = 1.08
• N[C@@H](CCl)C(=O)O = 0.993
• NC(=O)N1c2ccccc2C=Cc2ccccc21 = 1.18
• COc1cc(-c2coc3cc(O[C@@H]4O[C@H](CO)[C@@H](O)[C@H](O)[C@H]4O)c(OC)c(O)c3c2=O)cc(O)c1OC = 1.04
• COc1cnc(NS(=O)(=O)c2ccc(N)cc2)nc1 = 1.03
• CC(=O)N[C@@H](Cc1c[nH]c2ccccc12)C(=O)O = 0.959
• CNC(Cc1c[nH]c2ccccc12)C(=O)O (stereo unspecified) = 0.902
• NC(=O)NO = 1.03
• NC(=S)c1ccc(Oc2ccc(Cl)cc2)nc1 = 0.112
• CCCCCCCCCCCCCCCCCCOCC(O)CO (stereo unspecified) = 1.01
• CC(=O)O[C@H]1CC[C@]2(C)C3CC[C@@]4(C)C(CC5O[C@@]6(CCC(C)CO6)[C@@H](C)C54)C3CC[C@H]2C1 (stereo partly specified) = 1.09
• CO[C@H]1C[C@H](O[C@H]2[C@H](C)[C@@H](OC3O[C@H](C)C[C@H](N(C)C)[C@H]3OC(C)=O)[C@@H](C)C[C@]3(CO3)C(=O)[C@H](C)[C@@H](OC(C)=O)[C@@H](C)[C@@H](C)OC(=O)[C@@H]2C)O[C@@H](C)[C@@H]1OC(C)=O (stereo partly specified) = 0.962
• COc1cc(NS(=O)(=O)c2ccc(N)cc2)ncn1 = 1.1
• COc1cc(O)cc(OC)c1OC = 1.08
• NCCc1c[nH]c2ccccc12 = 0.987
• CC[C@H]1CN2CCc3cc(OC)c(OC)cc3C2C[C@@H]1CC1NCCc2cc(OC)c(OC)cc21 (stereo partly specified) = 1.08
• COc1cc2c(cc1OC)-c1cc(=Nc3c(C)cc(C)cc3C)n(C)c(=O)n1CC2 = 0.998
• CC(=O)OCC(=O)[C@@]12OC3(CCCC3)O[C@@H]1CC1C3CCC4=CC(=O)C=C[C@]4(C)[C@@]3(F)[C@@H](O)C[C@@]12C (stereo partly specified) = 1.11
• O=C(CCc1ccc(O)cc1)c1c(O)cc(O)cc1O[C@@H]1O[C@H](CO)[C@@H](O)[C@H](O)[C@H]1O = 1.23
• CC1(C)C=Cc2cc3ccc(=O)oc3cc2O1 = 1.06
• CC(=O)O[C@H]1CC[C@]2(C)C3CC(=O)[C@]4(C)C(C(C)=O)=CCC4C3CC[C@H]2C1 (stereo partly specified) = 0.97
